# reported -log (IC50); entries follow
Target: T1, rat parathyroid hormone receptor 1, wild-type (rPTHR-1) (rat, UniProt P25961 27-591)
T1 construct: whole, on cells; also called rat PTHR-1; rPTHR-1-WT
T1 sequence (looked up): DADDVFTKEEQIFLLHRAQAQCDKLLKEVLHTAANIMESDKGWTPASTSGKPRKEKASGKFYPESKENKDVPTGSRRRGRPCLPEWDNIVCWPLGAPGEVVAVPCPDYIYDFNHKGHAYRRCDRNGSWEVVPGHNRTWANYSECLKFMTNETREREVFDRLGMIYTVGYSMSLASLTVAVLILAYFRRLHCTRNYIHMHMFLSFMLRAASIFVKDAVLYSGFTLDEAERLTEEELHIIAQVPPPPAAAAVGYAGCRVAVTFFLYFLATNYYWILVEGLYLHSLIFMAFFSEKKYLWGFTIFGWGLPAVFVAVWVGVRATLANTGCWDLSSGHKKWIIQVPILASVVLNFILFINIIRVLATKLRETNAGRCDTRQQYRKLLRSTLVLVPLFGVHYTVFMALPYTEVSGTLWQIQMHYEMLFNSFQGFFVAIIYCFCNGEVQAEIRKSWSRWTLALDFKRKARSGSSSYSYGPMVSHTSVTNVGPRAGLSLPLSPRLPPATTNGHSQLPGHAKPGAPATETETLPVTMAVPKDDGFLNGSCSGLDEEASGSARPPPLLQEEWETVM
Assay: RG state; 125I-M-PTH(1-15) displacement; COS-7 membranes, rPTHR-1 + Gαs mutant
Non-standard residues stand in square brackets, D forms with d. No end group written: not given here. β3hW = N[C@H](CC(=O)O)Cc1c[nH]c2ccccc12; β3hE = N[C@@H](CCC(=O)O)CC(=O)O; β3hF = N[C@H](CC(=O)O)Cc1ccccc1; β3hK = NCCCC[C@H](N)CC(=O)O; β3hM = CSCC[C@H](N)CC(=O)O; β3hD = NC(CC(=O)O)CC(=O)O

Binder | -log (IC50)
SVSEIQLMHNLGKWLNSMERVEWLRKKLQDVHNF-NH2 (not fully specified (residue 14); printed as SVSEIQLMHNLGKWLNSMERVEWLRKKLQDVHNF-NH2; also: seven β3 residues, positions not given here in text, also called α/β-peptide D7) [D7] | 8.69
SVSEIQLMHNLGKHLNSMERVEWLRKKLQDVQNF-NH2 (not fully specified (residues 20, 24, 28, 32); printed as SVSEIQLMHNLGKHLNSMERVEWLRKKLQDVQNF-NH2; also: five β3 residues, positions not given here in text, also called α/β-peptide B5) [B5] | 8.37
SVSEIQLMHNLGK[β3hW]LNS[β3hM]ERV[β3hE]WLR[β3hK]KLQ[β3hD]VHN[β3hF]-NH2 (also called α/β-peptide D6) [D6] | 9.09
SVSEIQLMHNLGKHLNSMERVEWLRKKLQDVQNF-NH2 (not fully specified (residue 32); printed as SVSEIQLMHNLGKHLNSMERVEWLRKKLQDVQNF-NH2; also: three β3 residues, positions not given here in text, also called α/β-peptide B3) [B3] | 8.07
